# Experimental protocol: Gamma critical micelle concentration of the compound by wilhelmy method
# Assay type: physicochemical
Result type: gammaCMC (mN/meter)

Worked cases, gammaCMC given:
# Input smiles, Uom, gammaCMC
rows = [
    ("CCCCCCCCOCC#CCOC[C@H]1O[C@H](O)[C@H](O)[C@@H](O)[C@H]1O", "mN/meter", 30),
    ("CCCCCCCCOCCCCOC[C@H]1O[C@H](O)[C@H](O)[C@@H](O)[C@H]1O", "mN/meter", 30),
]

I: CCCCCCCCCCCCOCCCCOC[C@H]1O[C@H](O)[C@H](O)[C@@H](O)[C@H]1O
II: CCCCCCCCOC[C@H]1O[C@H](O)[C@H](O)[C@@H](O)[C@H]1O
Input line: Lab note: check whether I or II shows the higher recorded gammaCMC. Output the label that corresponds to your choice.
Output line: I

====

# Tested on: Dickeya chrysanthemi
# Experimental protocol: Antibacterial activity against Erwinia chrysanthemi EC3937 assessed as growth inhibition at 30 degC after 24 hrs by liquid broth dilution method
# Format: functional
# Assay setup: EC3937, 24 h
Result type: MIC (µg/mL)

# Input smiles, MIC, µg/mL
records = [
    ("CCCCCCCCCCCCOc1ccc(OC[C@H]2O[C@H](O)[C@H](O)[C@@H](O)[C@H]2O)cc1", 62.5),
    ("CCCCCCCCOc1ccc(OC[C@H]2O[C@@H]3OC(C)(C)O[C@@H]3[C@H]3OC(C)(C)O[C@H]32)cc1", 62.5),
    ("CCCCCCCCCCCCOCC#CCOC[C@H]1O[C@@H]2OC(C)(C)O[C@@H]2[C@H]2OC(C)(C)O[C@H]21", 62.5),
]

====

# System: Geobacillus stearothermophilus
# Experimental protocol: Antibacterial activity against Bacillus stearothermophilus ATTC 12980 assessed as growth inhibition at 30 degC after 24 hrs by liquid broth dilution method
# Assay type: functional
# Assay setup: ATTC 12980, 24 h
Result type: MIC (µg/mL)

A: CCCCCCCCCCCCOCCCCOC[C@H]1O[C@H](O)[C@H](O)[C@@H](O)[C@H]1O
B: CCCCCCCCCCCCOCC#CCOC[C@H]1O[C@@H]2OC(C)(C)O[C@@H]2[C@H]2OC(C)(C)O[C@H]21
Input line: Lab note: check whether A or B has the lower measured MIC. Pick one and reply with its label.
Output line: B

====

# Test system: Pseudomonas aeruginosa
# Experimental protocol: Antibacterial activity against Pseudomonas aeruginosa CIP A22 assessed as growth inhibition at 30 degC after 24 hrs by liquid broth dilution method
# Type: functional
# Assay setup: CIP A22, 24 h
Result type: MIC (µg/mL)

# Input smiles, Target entity, Val
rows = [
    ("CCCCCCCCCCCCOCC#CCOC[C@H]1O[C@@H]2OC(C)(C)O[C@@H]2[C@H]2OC(C)(C)O[C@H]21", "Pseudomonas aeruginosa", 62.5),
]

1: CCCCCCCCOCCCCOC[C@H]1O[C@@H]2OC(C)(C)O[C@@H]2[C@H]2OC(C)(C)O[C@H]21
2: CCCCCCCCCCCCOc1ccc(OC[C@H]2O[C@@H]3OC(C)(C)O[C@@H]3[C@H]3OC(C)(C)O[C@H]32)cc1
Input line: Would you kindly point out which of 1 and 2 has the smaller MIC figure? # answer = label of selected item
Output line: 1
(1: 62.5 µg/mL, 2: 125 µg/mL)
